Cited source: patent US6545007B2

system: HIV-1 (IIIB strain); assay type: cell-based; settings: anti-HIV-1 activity, acutely infected MT-4 cells, MTT
Would you mind telling me the reported pEC50 of each entry?
// pEC50 is dimensionless: -log10 of concentration (M)

Look up pEC50 with HIV-1 (IIIB strain) for this molecule: O=c1cc(Cc2c(F)cccc2F)nc(N2CCCCC2)[nH]1
7.70

Try the molecule Cc1c(C(C)c2c(F)cccc2F)nc(NC2CCCCC2)[nH]c1=O (stereo not shown)
7.52

Another molecule to look at: Cc1c(Cc2c(F)cccc2F)nc(N2CCN(C)CC2)[nH]c1=O
6.44

Try this molecule next: CCCCNc1nc(C(C)c2c(F)cccc2F)cc(=O)[nH]1 (stereo not shown)
7.52

Please do the same for Cc1c(Cc2c(F)cccc2F)nc(N(C)C)[nH]c1=O as well.
7.70

// same read-out, input: Cc1c(Cc2c(F)cccc2F)nc(N2CCSCC2)[nH]c1=O
7.05

Consider next the molecule Cc1c(C(C)c2c(F)cccc2F)nc(SC(C)C)[nH]c1=O (stereo not shown) in the same way.
8.15

Next record, please: CSCSc1nc(Cc2ccccc2)cc(=O)[nH]1
4.70

Next molecule up: CSCSc1nc(Cc2c(F)cccc2F)cc(=O)[nH]1
6.10

Next record, please: Cc1c(C(C)c2c(F)cccc2F)nc(SC2CCCC2)[nH]c1=O (single isomer, unassigned) [MC 1047−]
6.15

----------
tested on: mock-infected MT-4 cells; assay: Cytotoxicity: viability of mock-infected cells by the MTT method; type: cell-based, human
QUANTITY_NAME: CC50

Returns the measured CC50 for the input compound. Input: CCC(C)Sc1nc(Cc2ccc(N)cc2)cc(=O)[nH]1 (centres unmarked)
> 200 µM

Same thing, different compound: CCC(C)Nc1nc(Cc2c(F)cccc2F)cc(=O)[nH]1 (centres unmarked)
> 200 µM

Also CC1CC(C)CC(Oc2nc(Cc3ccccc3)cc(=O)[nH]2)C1 (centres unmarked) ?
> 200 µM

Entry to check: CCc1c(Cc2cccc3ccccc23)nc(SC(C)CC)[nH]c1=O (centres unmarked)
> 200 µM

Repeat with O=c1cc(Cc2c(F)cccc2F)nc(NC2CCCCC2)[nH]1
66 µM

----------
Test system: HIV-1 (IIIB strain)
Assay type: cell-based
Conditions: anti-HIV-1 activity, HIV-1-infected MT-4 cells
Protocol: Compounds. Compounds were solubilized in DMSO at 200 mM and then diluted into culture medium. Cells and viruses. […] HIV Titration. […] The infectious virus titre was determined by light microscope scoring of cytopathicity after 4 days of incubation and the virus titres were expressed as CCID50/mL. Anti-HIV Assays. […] After a 4-day incubation at 37° C., the number of viable cells was determined by the 3-(4,5-dimethylthiazol-[…])-2,5-diphenyltetrazolium bromide (MTT) method. […]
QUANTITY_NAME: pEC50
Here pEC50 is given on a logarithmic scale as minus log10 of the concentration in mol/L.

Query pEC50 on HIV-1 (IIIB strain) for CCC(C)Sc1nc(Cc2ccc(Cl)cc2)c(C)c(=O)[nH]1 (centres unmarked) [MC 911]
5.02

Likewise for CC(C)Sc1nc(C(C)c2c(Cl)cccc2Cl)cc(=O)[nH]1 (centres unmarked) [MC 1001] ?
5.92

Could you do the same for CC1CC(C)CC(Oc2nc(Cc3ccccc3)cc(=O)[nH]2)C1 (centres unmarked) [MC 512] , please?
4.52

Try this compound next: CSc1nc(Cc2c(F)cccc2F)c(C)c(=O)[nH]1 [MC 869]
6.72

Cool, now CC(c1ccccc1)c1cc(=O)[nH]c(SC2CCCCC2)n1 (centres unmarked) [MC 898]
6.22

Okay, and O=c1cc(Cc2ccccc2)nc(SCOCc2ccccc2)[nH]1 [MC 843] ?
4.35

Record: CCCCSc1nc(C(C)c2c(F)cccc2F)cc(=O)[nH]1 (centres unmarked) [MC 1045]
7.15

Here is the next compound: CCC(C)Sc1nc(Cc2ccccc2[N+](=O)[O-])cc(=O)[nH]1 (centres unmarked) [MC 817]
6.60

Quick one: CC(C)Sc1nc(Cc2c(F)cccc2F)c(C(C)C)c(=O)[nH]1 [MC 1039]
6.40

Please answer likewise for CSc1nc(Cc2c(Cl)cccc2Cl)cc(=O)[nH]1 [MC 877]
5.49

Thanks! And O=c1cc(Cc2c(Cl)cccc2Cl)nc(SC2CCCC2)[nH]1 [MC 888] ?
6.40

What would you report for CCC(C)Sc1nc(Cc2ccccc2F)cc(=O)[nH]1 (centres unmarked) [MC 880] ?
6.59

And the next one, CCC(C)Sc1nc(Cc2ccc(F)cc2)c(C)c(=O)[nH]1 (centres unmarked) [MC 919] ?
4.96

And for CCC(C)Sc1nc(C(C)c2c(F)cccc2F)c(C)c(=O)[nH]1 (centres unmarked) [MC 1109] ?
7.52
